Provide the reported Kd of each item.
- target: T1, biotinylated Aβ1-40 peptide (biotinylated (N-biotinylated in Example 7))
- T1 construct: captured on streptavidin (SA) chip; also called Biotinylated Aβ peptide 1-40; Aβ1-40 on SA chip
- T1 sequence (peptide, as listed by the source): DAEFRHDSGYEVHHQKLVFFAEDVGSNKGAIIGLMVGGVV
- assay_comment: SPR, Fab over Aβ1-40 on SA chip; KD=koff/kon
Answers are plain numbers, in nM.

9TL variant M52 Fab (Fab, V domains shown, Fab; human IgG2 CH1 and kappa CL) VH: QVQLVQSGAEVKKPGASVKVSCKASGYYTEAYYIHWVRQAPGQGLEWMGRIDPATGNTKYAPRLQDRVTMTRDTSTSTVYMELSSLRSEDTAVYYCASLYSLPVFWGQGTTVTVSS VL: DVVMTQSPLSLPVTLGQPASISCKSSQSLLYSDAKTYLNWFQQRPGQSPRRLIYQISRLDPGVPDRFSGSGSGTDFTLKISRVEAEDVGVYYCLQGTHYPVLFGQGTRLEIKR
4.09
9TL variant M36 Fab (Fab, V domains shown, Fab; human IgG2 CH1 and kappa CL) VH: QVQLVQSGAEVKKPGASVKVSCKASGYYTEAYYIHWVRQAPGQGLEWMGRIDPATGNTKYAPRLQDRVTMTRDTSTSTVYMELSSLRSEDTAVYYCASLYSRPVYWGQGTTVTVSS VL: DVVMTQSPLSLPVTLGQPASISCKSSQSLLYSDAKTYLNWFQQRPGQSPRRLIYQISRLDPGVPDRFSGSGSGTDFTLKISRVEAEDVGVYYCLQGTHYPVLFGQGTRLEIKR
2.83

Now consider a different binder.
*Q* Item 9TL variant M19 Fab (Fab, V domains shown, Fab; human IgG2 CH1 and kappa CL) VH: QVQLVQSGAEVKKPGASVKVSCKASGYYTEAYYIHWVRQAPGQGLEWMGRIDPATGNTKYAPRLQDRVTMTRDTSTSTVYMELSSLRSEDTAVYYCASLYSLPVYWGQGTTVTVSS VL: DVVMTQSPLSLPVTLGQPASISCKSSQSLLYSDAKTYLNWFQQRPGQSPRRLIYQISRLDPGVPDRFSGSGSGTDFTLKISRVEAEDVGVYYCLQGTHMPVLFGQGTRLEIKR : provide Kd
*A* 5.35
